The reader will find reported Ki values listed item by item below.
Molecular target: Type-1 angiotensin II receptor (Homo sapiens)
Sequence (P30556 whole entry): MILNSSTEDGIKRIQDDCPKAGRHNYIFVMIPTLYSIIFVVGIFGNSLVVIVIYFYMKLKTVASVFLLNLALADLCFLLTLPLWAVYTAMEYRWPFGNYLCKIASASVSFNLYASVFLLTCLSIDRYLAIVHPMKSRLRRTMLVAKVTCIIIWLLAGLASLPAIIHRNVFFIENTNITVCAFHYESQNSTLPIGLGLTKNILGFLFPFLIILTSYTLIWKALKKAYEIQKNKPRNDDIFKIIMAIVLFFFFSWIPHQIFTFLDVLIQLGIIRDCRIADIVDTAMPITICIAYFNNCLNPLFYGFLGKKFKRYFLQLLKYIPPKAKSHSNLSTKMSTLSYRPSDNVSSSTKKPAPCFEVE
Experiment: Displacement of Europium-labeled angiotensin-2 from human AT1 receptor expressed in CHOK1 cell membranes after 120 mins by DELFIA
assay-readout: Ki (µM)

>  <compound>
CCOc1nc(CC)c(CNC(=O)[C@@H](S)CC(C)C)n1Cc1cc(F)c(-c2ccccc2C(=O)O)cc1F

>  <target-under-test>
Type-1 angiotensin II receptor (Homo sapiens)

>  <assay-readout>
Ki

>  <inequality-sign>
=

>  <endpoint-result>
0.00501

$$$$
>  <compound>
CCOc1nc(CC)c(CNC(=O)[C@@H](CS)CC(C)C)n1Cc1ccc(-c2ccccc2C(=O)O)cc1F

>  <target-under-test>
Type-1 angiotensin II receptor (Homo sapiens)

>  <assay-readout>
Ki

>  <inequality-sign>
=

>  <endpoint-result>
0.000794

$$$$
>  <compound>
CCCCc1nc(CC)c(CNC(=O)[C@@H](S)CC(C)C)n1Cc1ccc(-c2ccccc2C(=O)O)cc1

>  <target-under-test>
Type-1 angiotensin II receptor (Homo sapiens)

>  <assay-readout>
Ki

>  <inequality-sign>
=

>  <endpoint-result>
0.0398

$$$$
>  <compound>
CCOc1nc(CC)c(CNC(=O)[C@@H](S)CC(C)C)n1Cc1ccc(-c2ccccc2C(=O)O)cc1F

>  <target-under-test>
Type-1 angiotensin II receptor (Homo sapiens)

>  <assay-readout>
Ki

>  <inequality-sign>
=

>  <endpoint-result>
0.00126

$$$$
>  <compound>
O=C(O)CNC(=O)C(CS)Cc1ccccc1 (configuration not stated) [THIORPHAN]

>  <target-under-test>
Type-1 angiotensin II receptor (Homo sapiens)

>  <assay-readout>
Ki

>  <inequality-sign>
>

>  <endpoint-result>
10

$$$$
>  <compound>
CCCCc1nc(Cl)c(CNC(=O)C(CS)CC(C)C)n1Cc1ccc(-c2ccccc2-c2nnn[nH]2)cc1 (racemic)

>  <target-under-test>
Type-1 angiotensin II receptor (Homo sapiens)

>  <assay-readout>
Ki

>  <inequality-sign>
=

>  <endpoint-result>
0.01

$$$$
>  <compound>
O=C(N[C@H]1CCS[C@H]2CCC[C@@H](C(=O)O)N2C1=O)[C@@H](S)Cc1ccccc1 [OMAPATRILAT]

>  <target-under-test>
Type-1 angiotensin II receptor (Homo sapiens)

>  <assay-readout>
Ki

>  <inequality-sign>
>

>  <endpoint-result>
10

$$$$
>  <compound>
CCCOc1nc(CC)c(CNC(=O)[C@@H](S)CC(C)C)n1Cc1ccc(-c2ccccc2C(=O)O)cc1

>  <target-under-test>
Type-1 angiotensin II receptor (Homo sapiens)

>  <assay-readout>
Ki

>  <inequality-sign>
=

>  <endpoint-result>
0.02

$$$$
>  <compound>
CCOc1nc(CC)c(CNC(=O)[C@@H](S)CC(C)C)n1Cc1ccc(-c2ccccc2C(=O)O)c(F)c1

>  <target-under-test>
Type-1 angiotensin II receptor (Homo sapiens)

>  <assay-readout>
Ki

>  <inequality-sign>
=

>  <endpoint-result>
0.00501

$$$$
>  <compound>
CCCCc1nc(Cl)c(CNC(=O)[C@@H](CS)CC(C)C)n1Cc1ccc(-c2ccccc2C(=O)O)cc1

>  <target-under-test>
Type-1 angiotensin II receptor (Homo sapiens)

>  <assay-readout>
Ki

>  <inequality-sign>
=

>  <endpoint-result>
0.0158

$$$$
>  <compound>
CCCCc1nc(C)c(CNC(=O)[C@@H](S)CC(C)C)n1Cc1ccc(-c2ccccc2C(=O)O)cc1

>  <target-under-test>
Type-1 angiotensin II receptor (Homo sapiens)

>  <assay-readout>
Ki

>  <inequality-sign>
=

>  <endpoint-result>
0.2

$$$$
>  <compound>
CCCCc1nc(Cl)c(CNC(=O)[C@H](CS)CC(C)C)n1Cc1ccc(-c2ccccc2C(=O)O)cc1

>  <target-under-test>
Type-1 angiotensin II receptor (Homo sapiens)

>  <assay-readout>
Ki

>  <inequality-sign>
=

>  <endpoint-result>
0.1

$$$$
>  <compound>
CCCCc1nc(Cl)c(CNC(=O)C(CS)CC2CCCCC2)n1Cc1ccc(-c2ccccc2C(=O)O)cc1 (racemic)

>  <target-under-test>
Type-1 angiotensin II receptor (Homo sapiens)

>  <assay-readout>
Ki

>  <inequality-sign>
=

>  <endpoint-result>
0.251

$$$$
>  <compound>
CCCCc1nc(C2CC2)c(CNC(=O)[C@@H](S)CC(C)C)n1Cc1ccc(-c2ccccc2C(=O)O)cc1

>  <target-under-test>
Type-1 angiotensin II receptor (Homo sapiens)

>  <assay-readout>
Ki

>  <inequality-sign>
=

>  <endpoint-result>
0.0316

$$$$
>  <compound>
CCCCc1nc(Cl)c(CNC(=O)C(CS)CC(C)C)n1Cc1ccc(-c2ccccc2C(=O)O)cc1 (racemic)

>  <target-under-test>
Type-1 angiotensin II receptor (Homo sapiens)

>  <assay-readout>
Ki

>  <inequality-sign>
=

>  <endpoint-result>
0.0398

$$$$
>  <compound>
CCCCc1nc(Cl)c(CNC(=O)C(CS)Cc2ccccc2)n1Cc1ccc(-c2ccccc2-c2nnn[nH]2)cc1 (racemic)

>  <target-under-test>
Type-1 angiotensin II receptor (Homo sapiens)

>  <assay-readout>
Ki

>  <inequality-sign>
=

>  <endpoint-result>
0.0158

$$$$
>  <compound>
CCOc1nc(CC)c(CNC(=O)[C@@H](CS)CC(C)C)n1Cc1ccc(-c2ccccc2C(=O)O)cc1

>  <target-under-test>
Type-1 angiotensin II receptor (Homo sapiens)

>  <assay-readout>
Ki

>  <inequality-sign>
=

>  <endpoint-result>
0.00126

$$$$
